# Test system: HL-60(TB) leukemia
# method summary: NCI tumour cell line growth inhibition, 48 h
TGI values, listed per item
measure: TGI (µM)

1) O=C(O/N=C1/CCCC/C1=C\c1ccccc1)c1ccc(Cl)c(Cl)c1	34.1
2) CC(=O)c1sc2c(c1OC(=O)c1ccc(Cl)cc1)c(=O)n(-c1ccccc1)c(=S)n2-c1ccccc1	30.6
3) c1ccc(-c2c(-c3ccccc3)[n+](Cc3ccc4ccccc4c3)c(-c3cccc4ccccc34)n2Cc2ccc3ccccc3c2)cc1	0.228
4) CS(=O)(=O)N1CC(CI)c2ccc(O)cc21 (stereo unspecified)	6.09
5) COC(=O)CCCC(=O)NC1=C(Nc2ccc(OC)cc2)C(=O)c2ccccc2C1=O	54.5
6) COc1ccc(Nc2nccc(Nc3ccc4[nH]ncc4c3)n2)cc1	4.67
7) C/C(=N\O)c1ccc2cc(Br)c3ccccc3c2c1	44.7
8) CCCCCCCCc1ccc(OCCOCC[N+](C)(C)CC)cc1 (tested in a mixture with another compound)	4.85
9) CCCc1c(Cl)nc(Cl)nc1Cl	3.01

* * *

# System: A549 NSCLC
# method summary: NCI tumour cell line growth inhibition, 48 h
TGI values, listed per item
measure: TGI

1) Nc1ncnc2c1ncn2C1OC(CSCc2ccc(Cl)cc2)C(O)C1O (centres undefined)	> 100 µM
2) Cc1ccc(C2(c3ccc(C)cc3)SC(=C(C#N)C#N)c3ccccc32)cc1	> 100 µM
3) O=[N+]([O-])O	> 100 µM
4) COc1ccc(/C=C(\C#N)c2nc3ccccc3c(=O)[nH]2)cc1	> 100 µM
5) Cc1ccc(NC(=O)OCC(COc2ccc(Cl)cc2)OC(=O)Nc2ccc(C)cc2)cc1 (centres undefined)	> 100 µM
6) CCCCCCCCc1cc[n+](CC(=O)c2ccc(Br)cc2)cc1	3.25 µM
7) N#C/C(=N/Nc1nc[nH]c1C(N)=O)C(=O)Nc1ccccc1	> 100 µM
8) CCOC(=O)c1nc2cc(C(F)(F)F)ccc2nc1Nc1cc(OC)c(OC)c(OC)c1	> 100 µM
9) CN(C)CCn1nc2c3c(c(C(=O)NCCCN(C)CCCNC(=O)c4ccc5c6c(nn5CCN(C)C)-c5ccccc5Nc46)ccc31)Nc1ccccc1-2	0.332 µM
10) O=CNCCCN1CCN(CCCNC=O)CC1	> 100 µM
11) OCCN1c2ccccc2Sc2ccccc21	> 10 µM
12) N#CCCN(CCC#N)CCN(CCN(CCC#N)CCC#N)CCN(CCC#N)CCC#N	> 100 µM
13) COC(=O)CCCC(=O)NC1=C(Nc2ccc(OC)cc2)C(=O)c2ccccc2C1=O	42.7 µM
14) CCN1CCC(Oc2c(C#N)ncc3[nH]c4ncccc4c23)CC1	> 50 µM
15) COc1cc2cc3c4c(cc(OC)c(OC)c4c2cc1OC)CCN3	> 100 µM
16) C=CCNC(=O)N1CC(C)C(=O)Nc2ccccc21 (centres undefined)	> 100 µM
17) Cc1c(C(=O)OCc2ccccc2)[n+](=O)c2ccccc2n1[O-]	70.7 µM
18) C=CCCC1CCCNC1=S (centres undefined)	> 100 µM
19) COc1ccc(CCn2c3c(c4c(O)cccc42)C(=O)c2ccccc2-3)cc1OC	> 100 µM
20) CCCC[C@@H](C)/C=C1\CN2CCC[C@H]2[C@@](C)(O)[C@@H]1O	> 100 µM
21) Cc1nc2cc([N+](=O)[O-])ccc2c(NCCCN(C)C)c1C	32.2 µM
22) CCC/C=C/C=C/C(=O)OC1C(C)C2(O)C3C=C(C)C(=O)C3CC(COC(C)=O)=CC2C2C(C)(C)C12OC(=O)C(C)C (centres undefined)	> 100 µM
23) C/C(=N\O)c1ccc2cc(Br)c3ccccc3c2c1	> 100 µM
24) CC(=O)C(C)CCOC1(C)OCCC1C (centres undefined)	> 100 µM
25) Clc1ccc(CCC(Cn2ccnc2)Sc2c(Cl)cccc2Cl)cc1 (centres undefined)	14.5 µM
26) C/C=C/[C@@H]1[C@H]2C(=O)[C@]3(Cl)[C@@H](/C=C/C)[C@@H]3C(=O)[C@@]12Cl	> 100 µM
27) O=c1c2ccccc2nc2n1CCc1c-2[nH]c2ccc(Br)cc12	> 100 µM
28) O=C(O/N=C1/CCCC/C1=C\c1ccccc1)c1ccc(Cl)c(Cl)c1	32.3 µM
29) Cc1ccc(Nc2nc3nc[nH]c3c(=O)[nH]2)cc1CO	10.2 µM
30) O=C1C=CC(=O)c2c(O)c(NCCCN3CCOCC3)c(Cl)c(O)c21	> 10 µM
31) CC(=O)OCC1OC(n2c(-c3ccc(C)cc3)cc(-c3ccco3)c(C#N)c2=S)C(OC(C)=O)C(OC(C)=O)C1OC(C)=O (centres undefined)	> 100 µM
32) CC(C)C1CNC2N1C(=O)C2(C)OCc1ccccc1 (centres undefined)	> 100 µM
33) COc1cc(Nc2cnc3cc(N)ccc3n2)cc(OC)c1OC	> 100 µM
34) CCC(Cc1cnc2nc(N)nc(N)c2n1)c1ccc(C(=O)NC(CCC(=O)O)C(=O)O)cc1 (centres undefined)	> 100 µM
35) O=C(N=Nc1c(O)[nH]c2c(Cl)cc(Cl)cc12)c1ccccc1O	27.4 µM
36) CCOC(=O)COc1ccc(OCC(=O)OCC)c2c1C(=O)CCCC2=O	> 100 µM
37) O=C(O)C1[C@@H](C(=O)O)C1(Br)CBr (some centres undefined)	> 100 µM
38) Cc1ccc(/C=N/Nc2ccccn2)s1	> 100 µM
39) CC(C)(/C=N\O)NO	> 10 µM
40) CC(=O)c1sc2c(c1OC(=O)c1ccc(Cl)cc1)c(=O)n(-c1ccccc1)c(=S)n2-c1ccccc1	> 76.1 µM
41) Cn1c(=O)c2nc3c4ccccc4c(=O)n(C)c3nc2n(C)c1=O	> 100 µM
42) O=C(CCl)Nc1ccc2c(c1)C(=O)c1ccccc1C2=O	23.5 µM
43) COc1cccc(C2c3cc4c(cc3OC(NNc3ccccc3)C2C)OCO4)c1O (centres undefined)	19.2 µM
44) COCN1C(=O)C2CC(/C=C/C(N)=O)=CN2C(=O)c2ccccc21 (centres undefined)	> 100 µM

Ref: PubChem BioAssay (NCI)
